Test system: skin
Assay: Elasticity of the skin (Cutometer SEM474, Ur/Uf)
Assay type: in vivo, human (middle-aged subjects)
Conditions: 1% aqueous solution, inside of the forearm, three times per day for four days; Ur/Uf at 300 hPa
reported metric: elasticity of the skin

>>> reported_result("Cl.NC(CO)CO [2-amino-1,3-propanediol hydrochloride]")
"improve"
>>> reported_result("NC(CO)CO [2-amino-1,3-propanediol]")
"improve"
